Provenance of the data: the supplement of paper PMC6555819

Test system: LXRa:RXRa (NR concentration 270 nM, RXRa partner concentration 90 nM)
test: PBM binding z-score (relative to random genomic background probes); higher = stronger binding; sequences stand for … in GC…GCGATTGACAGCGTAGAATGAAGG
measured.parameter: PBM binding z-score

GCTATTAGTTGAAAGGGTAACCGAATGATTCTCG
0.398
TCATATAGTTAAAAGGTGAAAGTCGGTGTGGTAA
1.98
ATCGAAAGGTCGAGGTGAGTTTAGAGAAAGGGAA
3.68
CCTCGGAGGACAGAAGGTCAGAACTGTCCGCTTT
1.35
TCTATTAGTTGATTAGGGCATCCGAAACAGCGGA
0.731
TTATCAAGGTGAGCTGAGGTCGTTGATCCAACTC
1.22

====

Tested on: RARb homodimer (NR concentration 270 nM)
test: PBM binding z-score (relative to random genomic background probes); higher = stronger binding; sequences stand for … in GC…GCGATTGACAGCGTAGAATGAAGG
measured.parameter: PBM binding z-score

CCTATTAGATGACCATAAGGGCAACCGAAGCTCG
1.98
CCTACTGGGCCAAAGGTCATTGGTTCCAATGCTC
4.8
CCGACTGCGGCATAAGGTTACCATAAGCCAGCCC
0.92
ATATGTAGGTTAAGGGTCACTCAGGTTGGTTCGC
4.35
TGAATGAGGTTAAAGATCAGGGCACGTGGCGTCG
1.91
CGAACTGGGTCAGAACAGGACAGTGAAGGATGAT
1.53
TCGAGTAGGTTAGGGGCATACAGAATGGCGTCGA
0.759
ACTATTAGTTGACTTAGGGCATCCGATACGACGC
0.597
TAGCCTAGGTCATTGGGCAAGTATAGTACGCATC
2.69
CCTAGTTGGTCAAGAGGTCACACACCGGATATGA
5.08
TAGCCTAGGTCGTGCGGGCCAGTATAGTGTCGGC
0.429
CGTCCAGGGTCAGAGAGGTCAGTGAATGCCGAGT
5.27

====

Test system: PPARg DBDmut:RXRa IVT, anti-PPARg (DBD mutation: PPARg1 K132A/R137A, NR concentration 270 nM, RXRa partner concentration 90 nM)
test: PBM binding z-score (relative to random genomic background probes); higher = stronger binding; sequences stand for … in GC…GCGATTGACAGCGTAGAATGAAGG
measured.parameter: PBM binding z-score

CCTCGGGGGACAGAAGGTCAGAGCTGTCCGCTTT
1.67
CGAACTATGTCAGAACAGGACAGTGAAGGATGAT
0.888
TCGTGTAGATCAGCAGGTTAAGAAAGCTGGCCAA
-0.818
CTCGAAAGGTCGTGCTCAGGTGAGTAGACCAAAC
1.76
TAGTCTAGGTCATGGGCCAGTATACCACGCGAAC
3.12
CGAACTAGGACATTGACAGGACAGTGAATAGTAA
1.39

====

System: PPARg:RXRa (NR concentration 180 nM, RXRa partner concentration 90 nM)
test: PBM binding z-score (relative to random genomic background probes); higher = stronger binding; sequences stand for … in GC…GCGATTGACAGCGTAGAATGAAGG
measured.parameter: PBM binding z-score

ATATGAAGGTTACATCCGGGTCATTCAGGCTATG
2.35
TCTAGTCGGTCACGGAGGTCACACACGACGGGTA
5.07
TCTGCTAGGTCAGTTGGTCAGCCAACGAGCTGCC
0.643
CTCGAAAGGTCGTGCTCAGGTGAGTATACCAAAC
2.62
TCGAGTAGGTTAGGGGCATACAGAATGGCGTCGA
1.04
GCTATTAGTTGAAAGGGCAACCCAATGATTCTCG
2.65
GCTTGTAGATCATGGTTAAGAAAGACTAAGCTAA
-0.054
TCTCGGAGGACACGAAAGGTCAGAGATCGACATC
1.5
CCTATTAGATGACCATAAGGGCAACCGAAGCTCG
0.753
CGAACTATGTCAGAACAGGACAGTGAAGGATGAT
0.811
AGAATGAGGTTATTAAGATCAGGGGATTGCGGTC
1.47
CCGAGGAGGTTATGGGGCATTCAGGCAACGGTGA
1.66
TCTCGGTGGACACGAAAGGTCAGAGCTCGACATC
1.16
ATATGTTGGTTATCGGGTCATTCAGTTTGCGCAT
1.7
TCGAGTAGGTTAGTCGTGGCATTCAGCCAACATA
-0.232
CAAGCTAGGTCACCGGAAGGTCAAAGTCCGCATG
5.86
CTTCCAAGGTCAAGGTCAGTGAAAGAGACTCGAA
6.43
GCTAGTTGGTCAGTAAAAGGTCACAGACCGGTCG
3.41
CCTTACCGGTCACTCCAGGTTATAGCATCGGAGT
0.603
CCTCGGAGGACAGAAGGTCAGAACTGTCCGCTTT
-0.0634
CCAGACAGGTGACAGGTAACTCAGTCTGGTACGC
1.37
TCTTGTAGATCAACAGGTGGTTAAGAAAGATCGA
-0.255
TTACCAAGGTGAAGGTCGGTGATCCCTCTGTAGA
2.65
CAAACTAGGTTAAAGGTCAAAGTCGAGCCAACCA
13.2
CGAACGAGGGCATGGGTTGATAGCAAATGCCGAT
3.1
TCTAGCAGGCCAGAGGGTCATTCAAGAGGTACGG
1.54
CCTACTGAGCCAAAAAGGTCATTGATGCCGATAA
1.31
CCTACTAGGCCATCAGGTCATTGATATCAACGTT
3.75
AGTCAAAGTTCATCTAAGTAACGTAAGATATGCT
6.53
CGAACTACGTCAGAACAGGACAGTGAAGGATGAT
0.632
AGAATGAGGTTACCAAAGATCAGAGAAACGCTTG
2.75
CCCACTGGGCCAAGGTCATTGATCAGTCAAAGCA
4.07
TGACCAAGGTGAGCTGAGGTCGTTGATCCAACTC
0.26
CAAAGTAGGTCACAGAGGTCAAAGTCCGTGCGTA
10.4
TATAGTTGGTCAAAGGTCACACACTCGAAATGCG
11.4
CCAACGAGGGCATGAGTTGATAGCAAATGCCGAT
1.05
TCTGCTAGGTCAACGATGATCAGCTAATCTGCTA
2.74
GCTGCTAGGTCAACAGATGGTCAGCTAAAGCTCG
2.43
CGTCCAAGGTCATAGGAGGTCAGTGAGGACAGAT
5.58
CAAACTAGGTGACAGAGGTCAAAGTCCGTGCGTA
7.83
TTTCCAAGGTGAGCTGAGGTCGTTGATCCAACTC
0.0102
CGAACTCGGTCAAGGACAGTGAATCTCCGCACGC
0.826
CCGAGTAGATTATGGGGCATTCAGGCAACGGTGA
0.487
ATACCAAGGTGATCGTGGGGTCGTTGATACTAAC
0.805
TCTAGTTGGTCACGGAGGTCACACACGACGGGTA
3.79
GCTAGTTGGTCAGTAAAAGGTCAGACACCGGTCG
1.79
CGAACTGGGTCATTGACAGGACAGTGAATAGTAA
6.77
CCTACTGGGCAATTCAGAGGTCATTGATCATATG
0.682
CGAACGAGGGCATGAGCTGATAGCAAATGCCGAT
1.02
TTACCAAGGTGAAGGTCCTTGATCCCTCTGTAGA
1.33
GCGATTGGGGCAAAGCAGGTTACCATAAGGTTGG
0.77
